- Test System: AHR (Mus musculus, UniProt P30561)
- Sequence (P30561 1-848 F348L/P471L): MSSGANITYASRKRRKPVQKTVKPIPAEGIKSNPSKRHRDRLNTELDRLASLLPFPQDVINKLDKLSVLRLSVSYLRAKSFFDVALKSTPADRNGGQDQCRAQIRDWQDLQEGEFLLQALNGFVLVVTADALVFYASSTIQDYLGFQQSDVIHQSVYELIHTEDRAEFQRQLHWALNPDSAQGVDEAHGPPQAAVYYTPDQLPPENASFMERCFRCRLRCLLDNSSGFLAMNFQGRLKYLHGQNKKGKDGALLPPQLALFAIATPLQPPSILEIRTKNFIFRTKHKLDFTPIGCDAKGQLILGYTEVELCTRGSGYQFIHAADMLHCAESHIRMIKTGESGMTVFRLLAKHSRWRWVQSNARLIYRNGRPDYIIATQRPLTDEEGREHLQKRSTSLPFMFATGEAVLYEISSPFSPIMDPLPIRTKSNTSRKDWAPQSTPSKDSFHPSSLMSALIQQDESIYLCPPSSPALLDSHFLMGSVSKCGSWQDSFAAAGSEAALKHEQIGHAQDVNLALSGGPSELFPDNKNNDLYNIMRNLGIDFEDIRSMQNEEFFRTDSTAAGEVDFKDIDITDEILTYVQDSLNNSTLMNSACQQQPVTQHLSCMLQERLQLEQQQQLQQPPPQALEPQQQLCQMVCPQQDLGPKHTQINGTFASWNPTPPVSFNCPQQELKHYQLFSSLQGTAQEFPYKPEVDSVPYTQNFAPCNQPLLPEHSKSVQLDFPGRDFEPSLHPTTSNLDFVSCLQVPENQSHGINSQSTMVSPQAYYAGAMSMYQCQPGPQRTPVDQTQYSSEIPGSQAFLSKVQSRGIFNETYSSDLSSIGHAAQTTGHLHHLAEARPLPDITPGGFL
- Protocol Text: DRE-Luciferase Reporter Assay, Hepa1.6 (agonist)
- Type: cell-based, murine
- Measurement Conditions: Hepa1.6, Table 3; read-out: DRE-Luc Hepa1.6 - Agonist: Average EC50
pEC50: −log10 of the molar value.
Assay Metric: pEC50

Consider the reported pEC50 for these molecules:
Nc1cc(-c2csc(Nc3cccc(C(F)(F)F)c3)n2)c(F)cc1F    > 8.00
OCc1cccc(-c2csc(Nc3cccc(C(F)(F)F)c3)n2)c1    < 6.00
Nc1cc(-c2csc(Nc3cccc(C(F)(F)F)c3)n2)ccc1F    > 8.00
COC(=O)/C(C)=N/Nc1cccc(-c2csc(Nc3cccc(C(F)(F)F)c3)n2)c1    6.00 to 7.00

Please turn your attention to the following entry.
[Q] Query pEC50 on AHR (Mus musculus, UniProt P30561) for O=c1ccc(-c2csc(Nc3cccc(C(F)(F)F)c3)n2)c[nH]1
[A] 6.00 to 7.00

---

- Test System: AHR (Homo sapiens)
- Construct: endogenous in cells; host or cells: HepG2 (human), transfected with a DRE-luciferase reporter only
- Sequence (P35869 11-848): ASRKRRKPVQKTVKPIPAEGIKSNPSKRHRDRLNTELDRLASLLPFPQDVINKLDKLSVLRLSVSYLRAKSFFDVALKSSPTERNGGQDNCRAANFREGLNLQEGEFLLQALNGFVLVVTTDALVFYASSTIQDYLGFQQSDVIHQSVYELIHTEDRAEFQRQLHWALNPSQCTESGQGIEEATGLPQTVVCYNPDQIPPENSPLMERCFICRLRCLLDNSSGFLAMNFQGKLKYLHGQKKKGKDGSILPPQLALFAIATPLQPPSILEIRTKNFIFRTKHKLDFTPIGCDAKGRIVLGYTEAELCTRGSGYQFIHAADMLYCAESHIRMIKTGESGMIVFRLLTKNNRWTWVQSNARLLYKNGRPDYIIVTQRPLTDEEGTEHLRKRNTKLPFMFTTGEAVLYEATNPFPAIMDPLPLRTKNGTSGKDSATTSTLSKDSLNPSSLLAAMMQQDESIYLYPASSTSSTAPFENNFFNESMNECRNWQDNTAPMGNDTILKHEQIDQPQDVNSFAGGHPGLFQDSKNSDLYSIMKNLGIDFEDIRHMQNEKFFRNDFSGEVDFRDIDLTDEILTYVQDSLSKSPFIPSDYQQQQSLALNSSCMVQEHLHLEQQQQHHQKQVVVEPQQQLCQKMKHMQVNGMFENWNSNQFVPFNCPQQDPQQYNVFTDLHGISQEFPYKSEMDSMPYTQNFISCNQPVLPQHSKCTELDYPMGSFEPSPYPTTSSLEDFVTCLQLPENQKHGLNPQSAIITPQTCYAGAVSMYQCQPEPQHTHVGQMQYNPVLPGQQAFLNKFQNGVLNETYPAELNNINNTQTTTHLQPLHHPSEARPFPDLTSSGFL
- Protocol Text: DRE-Luciferase Reporter Assay, HepG2 (agonist)
- Format: cell-based
- Measurement Conditions: HepG2, Table 2; read-out: DRE-Luc HepG2 - Agonist: Average EC50
// reported EC50 per item

Consider the reported EC50 for these molecules:
Cn1c(-c2cccc(Cl)c2)cnc1Nc1cccc(C(F)(F)F)c1    > 1000 nM
FC(F)(F)c1ccc(Nc2nc(-c3cccc(Cl)c3)cs2)cc1    < 10 nM
FC(F)(F)c1cccc(Nc2nc(-c3cccc(/N=N/c4cccc(-c5csc(Nc6cccc(C(F)(F)F)c6)n5)c4)c3)cs2)c1    100 to 1000 nM

Please turn your attention to the following entry.
[Q] Entry FC(F)(F)Oc1cccc(Nc2nc(-c3cccc(Cl)c3)cs2)c1 : reported EC50 = ?
[A] < 10 nM
